Cited source: patent US10508085B2

Target: human IDO (IDO1-expressing HEK293 cells) (Homo sapiens)
Construct: expressed in transfected cells
Sequence (P14902 whole entry): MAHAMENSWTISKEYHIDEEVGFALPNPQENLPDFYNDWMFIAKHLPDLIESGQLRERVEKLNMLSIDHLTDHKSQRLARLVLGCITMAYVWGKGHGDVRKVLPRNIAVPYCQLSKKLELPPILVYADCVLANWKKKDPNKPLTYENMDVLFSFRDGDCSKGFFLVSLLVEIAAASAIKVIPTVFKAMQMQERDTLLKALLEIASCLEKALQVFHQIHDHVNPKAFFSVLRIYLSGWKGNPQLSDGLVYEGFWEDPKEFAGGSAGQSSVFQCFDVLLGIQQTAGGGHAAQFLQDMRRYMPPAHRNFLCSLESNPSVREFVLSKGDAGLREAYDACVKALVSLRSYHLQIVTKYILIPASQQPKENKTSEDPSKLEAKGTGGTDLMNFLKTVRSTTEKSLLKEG
Assay: Cell based kynurenine assay, IDO1-expressing HEK293 cell clones
Details: cellular assay, HEK293, 24 hours; comparative examples; read-out: hIDO1
# IC50 listing for each entry below
Write down the value, and be sure its unit follows.

In the examples that follow, each entry is paired with its recorded IC50.
OC(c1cc(Cl)cc2cn[nH]c12)C1CCCCC1 (stereo not drawn) [drawing 810]: 230 nM
OC1(c2cc(Cl)cc3cn[nH]c23)CC2(CCOCC2)C1 [drawing 820]: 400 nM
CC(C)(C1CCN(S(C)(=O)=O)CC1)C(O)c1cc(Cl)cc2cn[nH]c12 (stereo not drawn) [drawing 814]: 80 nM
CC(C)(C1CCOCC1)C(O)c1cc(Cl)cc2cn[nH]c12 (stereo not drawn) [drawing 816]: 80 nM
COC12CCC(C(O)c3cc(Cl)cc4cn[nH]c34)(CC1)CC2 (stereo not drawn) [drawing 812]: 80 nM

Turning now to a further compound:
Query :: For CC(C)(C1CCOCC1)C(O)c1cc(Cl)cc2[nH]ncc12 (stereo not drawn) [drawing 817] , what is its reported IC50?
Result :: 6940 nM
